Tested on: A2780 Human Ovarian Carcinoma Xenografts
conditionDescription: i.v. qd x 1 (mg/kg: Taxol 24, 1351 75.3, 1401 107.6, 1418 107.6, Taxotere 70), Day 60
Toxic Deaths by entry:

molecule | assaySystem | Toxic Deaths
CCC(=O)O[C@H]1C[C@H]2OC[C@@]2(OC(C)=O)[C@H]2[C@H](OC(=O)c3ccccc3)[C@]3(O)C[C@H](OC(=O)[C@H](O)[C@@H](NC(=O)OC(C)(C)C)c4cccs4)C(C)=C([C@@H](O)C(=O)[C@]12C)C3(C)C | A2780 Human Ovarian Carcinoma Xenografts | 0
CC(=O)O[C@H]1C(=O)[C@@]2(C)[C@H]([C@H](OC(=O)c3ccccc3)[C@]3(O)C[C@H](OC(=O)[C@H](O)[C@@H](NC(=O)c4ccccc4)c4ccccc4)C(C)=C1C3(C)C)[C@]1(OC(C)=O)CO[C@@H]1C[C@@H]2O [Taxol, paclitaxel, reference compound] | A2780 Human Ovarian Carcinoma Xenografts | 0
CCC(=O)O[C@H]1C[C@H]2OC[C@@]2(OC(C)=O)[C@H]2[C@H](OC(=O)c3ccccc3)[C@]3(O)C[C@H](OC(=O)[C@H](O)[C@H](C=C(C)C)NC(=O)OC(C)(C)C)C(C)=C([C@@H](O)C(=O)[C@]12C)C3(C)C | A2780 Human Ovarian Carcinoma Xenografts | 0

----------
Partial Response by entry:
Tested on: A2780 Human Ovarian Carcinoma Xenografts
conditionDescription: i.v. qd x 1 (mg/kg: Taxol 24, 1351 75.3, 1401 107.6, 1418 107.6, Taxotere 70), Day 60

molecule | Partial Response
CCC(=O)O[C@H]1C[C@H]2OC[C@@]2(OC(C)=O)[C@H]2[C@H](OC(=O)c3ccccc3)[C@]3(O)C[C@H](OC(=O)[C@H](O)[C@@H](NC(=O)OC(C)(C)C)c4cccs4)C(C)=C([C@@H](O)C(=O)[C@]12C)C3(C)C | 0
CCC(=O)O[C@H]1C[C@H]2OC[C@@]2(OC(C)=O)[C@H]2[C@H](OC(=O)c3ccccc3)[C@]3(O)C[C@H](OC(=O)[C@H](O)[C@H](C=C(C)C)NC(=O)OC(C)(C)C)C(C)=C([C@@H](O)C(=O)[C@]12C)C3(C)C | 1
CC(=O)O[C@H]1C(=O)[C@@]2(C)[C@H]([C@H](OC(=O)c3ccccc3)[C@]3(O)C[C@H](OC(=O)[C@H](O)[C@@H](NC(=O)c4ccccc4)c4ccccc4)C(C)=C1C3(C)C)[C@]1(OC(C)=O)CO[C@@H]1C[C@@H]2O [Taxol, paclitaxel, reference compound] | 0
CCC(=O)O[C@H]1C[C@H]2OC[C@@]2(OC(C)=O)[C@H]2[C@H](OC(=O)c3ccccc3)[C@]3(O)C[C@H](OC(=O)[C@H](O)[C@@H](NC(=O)OC(C)(C)C)c4ccoc4)C(C)=C([C@@H](O)C(=O)[C@]12C)C3(C)C | 0
CC(=O)O[C@@]12CO[C@@H]1C[C@H](O)[C@@]1(C)C(=O)[C@H](O)C3=C(C)[C@@H](OC(=O)[C@H](O)[C@@H](NC(=O)OC(C)(C)C)c4ccccc4)C[C@@](O)([C@@H](OC(=O)c4ccccc4)[C@H]21)C3(C)C [docetaxel, reference compound] | 0

----------
System: HCT116
assayMethodText: In Vitro cytotoxicity measured by the cell colony formation assay
Type: cell-based
conditionDescription: Homo sapiens, HCT-116; 72 h drug incubation, colonies counted after 7 days; concentration producing 50% inhibition of colony formation; read-out: IN VITRO ID 50 (nm) HCT116

compound | IC50
CCCC(=O)OC1CC2OCC2(OC(C)=O)C2C(OC(=O)c3ccccc3)C3(O)CC(OC(=O)C(O)C(NC(=O)C=C(C)C)c4cccs4)C(C)=C(C(O)C(=O)C12C)C3(C)C (centres unmarked) | < 1 nM
CCCC(=O)N[C@@H](c1cccs1)[C@@H](O)C(=O)O[C@H]1C[C@@]2(O)[C@@H](OC(=O)c3ccccc3)[C@@H]3[C@]4(OC(C)=O)CO[C@@H]4C[C@H](OC(=O)CC)[C@@]3(C)C(=O)[C@H](O)C(=C1C)C2(C)C | < 10 nM
CCC(=O)O[C@H]1C[C@H]2OC[C@@]2(OC(C)=O)[C@H]2[C@H](OC(=O)c3ccccc3)[C@]3(O)C[C@H](OC(=O)[C@H](O)[C@@H](NC(=O)OC(C)(C)C)c4cccnc4)C(C)=C([C@@H](O)C(=O)[C@]12C)C3(C)C | 26.1 nM
CCC(=O)O[C@H]1C[C@H]2OC[C@@]2(OC(C)=O)[C@H]2[C@H](OC(=O)c3ccccc3)[C@]3(O)C[C@H](OC(=O)[C@H](O)[C@@H](NC(=O)c4ccccc4)c4ccsc4)C(C)=C([C@@H](O)C(=O)[C@]12C)C3(C)C | < 10 nM
CCC(=O)O[C@H]1C[C@H]2OC[C@@]2(OC(C)=O)[C@H]2[C@H](OC(=O)c3ccccc3)[C@]3(O)C[C@H](OC(=O)[C@H](O)[C@@H](NC(=O)OC(C)(C)C)c4ccccc4)C(C)=C([C@@H](O)C(=O)[C@]12C)C3(C)C | < 10 nM
CCC(=O)O[C@H]1C[C@H]2OC[C@@]2(OC(C)=O)[C@H]2[C@H](OC(=O)c3ccccc3)[C@]3(O)C[C@H](OC(=O)[C@H](O)[C@@H](NC(=O)OCC(C)C)C4CC4)C(C)=C([C@@H](O)C(=O)[C@]12C)C3(C)C | < 10 nM
CCCC(=O)OC1CC2OCC2(OC(C)=O)C2C(OC(=O)c3ccccc3)C3(O)CC(OC(=O)C(O)C(NC(=O)OC(C)(C)C)c4ccoc4)C(C)=C(C(O)C(=O)C12C)C3(C)C (centres unmarked) | < 1 nM
CCCC(=O)OC1CC2OCC2(OC(C)=O)C2C(OC(=O)c3ccccc3)C3(O)CC(OC(=O)C(O)C(NC(=O)c4ccco4)c4cccs4)C(C)=C(C(O)C(=O)C12C)C3(C)C (centres unmarked) | 29 nM
CC(=O)O[C@H]1C(=O)[C@@]2(C)[C@H]([C@H](OC(=O)c3ccccc3)[C@]3(O)C[C@H](OC(=O)[C@H](O)[C@@H](NC(=O)c4ccccc4)c4ccccc4)C(C)=C1C3(C)C)[C@]1(OC(C)=O)CO[C@@H]1C[C@@H]2O [Taxol, paclitaxel, reference compound] | 2.1 nM
CCC(=O)O[C@H]1C[C@H]2OC[C@@]2(OC(C)=O)[C@H]2[C@H](OC(=O)c3ccccc3)[C@]3(O)C[C@H](OC(=O)[C@H](O)[C@@H](NC(=O)OC(C)(C)C)C4CC4)C(C)=C([C@@H](O)C(=O)[C@]12C)C3(C)C | < 10 nM
CCCC(=O)O[C@H]1C[C@H]2OC[C@@]2(OC(C)=O)[C@H]2[C@H](OC(=O)c3ccccc3)[C@]3(O)C[C@H](OC(=O)[C@H](O)[C@@H](NC(=O)c4ccccc4)c4cccs4)C(C)=C([C@@H](O)C(=O)[C@]12C)C3(C)C | < 1 nM
